target: Proteasome Macropain subunit MB1 (Homo sapiens); assay: Inhibition of 20S proteasome beta5 subunit in human A549 cells using Suc-LLVY-luciferin substrate preincubated for 2 hrs followed by substrate addition and measured after 30 mins by luminometric analysis; format: cell-based
Sequence (P28074 whole entry): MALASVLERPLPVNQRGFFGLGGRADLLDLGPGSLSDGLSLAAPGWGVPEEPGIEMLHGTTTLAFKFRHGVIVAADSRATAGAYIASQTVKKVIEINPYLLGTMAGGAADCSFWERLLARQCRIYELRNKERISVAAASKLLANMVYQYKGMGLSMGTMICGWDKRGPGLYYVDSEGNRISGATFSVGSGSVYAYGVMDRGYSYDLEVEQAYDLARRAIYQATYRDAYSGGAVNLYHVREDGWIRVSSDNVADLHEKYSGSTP

- molecular.string: "Cc1ccc(C[C@H](NC(=O)Cc2ccccc2)B(O)O)cc1C"
  assayed.target: "Proteasome Macropain subunit MB1 (Homo sapiens)"
  readout.relation: "="
  IC50 [nM]: 24500
- molecular.string: "Cc1ccc(C[C@H](NC(=O)Cc2ccccc2)B(O)O)cc1"
  assayed.target: "Proteasome Macropain subunit MB1 (Homo sapiens)"
  readout.relation: "="
  IC50 [nM]: 6290
- molecular.string: "COc1cccc2c(C[C@H](NC(=O)Cc3ccccc3)B(O)O)coc12"
  assayed.target: "Proteasome Macropain subunit MB1 (Homo sapiens)"
  readout.relation: "="
  IC50 [nM]: 222
- molecular.string: "O=C(N[C@@H](Cc1coc2ccccc12)B(O)O)[C@@H]1CCCO1"
  assayed.target: "Proteasome Macropain subunit MB1 (Homo sapiens)"
  readout.relation: "="
  IC50 [nM]: 15000
- molecular.string: "O=C(N[C@@H](Cc1coc2ccccc12)B(O)O)[C@H]1C[C@@H]2CC[C@H]1O2"
  assayed.target: "Proteasome Macropain subunit MB1 (Homo sapiens)"
  readout.relation: "="
  IC50 [nM]: 2440
- molecular.string: "O=C(Cc1cccnc1)N[C@@H](Cc1coc2ccccc12)B(O)O"
  assayed.target: "Proteasome Macropain subunit MB1 (Homo sapiens)"
  readout.relation: "="
  IC50 [nM]: 646
- molecular.string: "Cc1cccc2c(C[C@H](NC(=O)Cc3ccccc3)B(O)O)coc12"
  assayed.target: "Proteasome Macropain subunit MB1 (Homo sapiens)"
  readout.relation: "="
  IC50 [nM]: 2100
- molecular.string: "Cc1ccc(C[C@@H](NC(=O)Cc2ccccc2)B(O)O)cc1C"
  assayed.target: "Proteasome Macropain subunit MB1 (Homo sapiens)"
  readout.relation: "="
  IC50 [nM]: 5900
- molecular.string: "N#Cc1ccccc1CC(=O)N[C@@H](C[C@@H]1COc2c(Cl)cccc21)B(O)O"
  assayed.target: "Proteasome Macropain subunit MB1 (Homo sapiens)"
  readout.relation: "="
  IC50 [nM]: 20900
- molecular.string: "COCC(=O)N[C@@H](Cc1coc2ccccc12)B(O)O"
  assayed.target: "Proteasome Macropain subunit MB1 (Homo sapiens)"
  readout.relation: "="
  IC50 [nM]: 520
- molecular.string: "O=C(Cc1ccccc1)N[C@@H](C[C@@H]1COc2c(Cl)cccc21)B(O)O"
  assayed.target: "Proteasome Macropain subunit MB1 (Homo sapiens)"
  readout.relation: "="
  IC50 [nM]: 6100
- molecular.string: "Cc1ccc(C[C@H](NC(=O)Cc2ccccc2)B(O)O)c(C)c1"
  assayed.target: "Proteasome Macropain subunit MB1 (Homo sapiens)"
  readout.relation: ">"
  IC50 [nM]: 30000
- molecular.string: "O=C(Cc1ccncc1)N[C@@H](Cc1coc2ccccc12)B(O)O"
  assayed.target: "Proteasome Macropain subunit MB1 (Homo sapiens)"
  readout.relation: "="
  IC50 [nM]: 2540
- molecular.string: "CC(C)C[C@H](NC(=O)Cc1ccccc1)B(O)O"
  assayed.target: "Proteasome Macropain subunit MB1 (Homo sapiens)"
  readout.relation: "="
  IC50 [nM]: 7000
- molecular.string: "O=C(Cc1ccccc1)N[C@@H](Cc1coc2ccccc12)B(O)O"
  assayed.target: "Proteasome Macropain subunit MB1 (Homo sapiens)"
  readout.relation: "="
  IC50 [nM]: 573
- molecular.string: "CC(=O)N[C@@H](Cc1coc2ccccc12)B(O)O"
  assayed.target: "Proteasome Macropain subunit MB1 (Homo sapiens)"
  readout.relation: "="
  IC50 [nM]: 420
- molecular.string: "O=C(Cc1ccccc1)N[C@@H](Cc1ccccc1)B(O)O"
  assayed.target: "Proteasome Macropain subunit MB1 (Homo sapiens)"
  readout.relation: "="
  IC50 [nM]: 9560
- molecular.string: "O=C(N[C@@H](Cc1coc2ccccc12)B(O)O)[C@@H]1C[C@H]2CC[C@@H]1O2"
  assayed.target: "Proteasome Macropain subunit MB1 (Homo sapiens)"
  readout.relation: "="
  IC50 [nM]: 1040
- molecular.string: "O=C(Cc1ccccc1)N[C@@H](Cc1ccc(Cl)cc1)B(O)O"
  assayed.target: "Proteasome Macropain subunit MB1 (Homo sapiens)"
  readout.relation: "="
  IC50 [nM]: 8750
- molecular.string: "O=C(N[C@@H](Cc1coc2ccccc12)B(O)O)[C@H]1CCOC1"
  assayed.target: "Proteasome Macropain subunit MB1 (Homo sapiens)"
  readout.relation: "="
  IC50 [nM]: 3000

Source: ChEMBL document CHEMBL5149996
